# experimentalSystem: T1, PUF4 RNA-binding domain (Saccharomyces cerevisiae, UniProt P25339 537-888)
# T1 sequence: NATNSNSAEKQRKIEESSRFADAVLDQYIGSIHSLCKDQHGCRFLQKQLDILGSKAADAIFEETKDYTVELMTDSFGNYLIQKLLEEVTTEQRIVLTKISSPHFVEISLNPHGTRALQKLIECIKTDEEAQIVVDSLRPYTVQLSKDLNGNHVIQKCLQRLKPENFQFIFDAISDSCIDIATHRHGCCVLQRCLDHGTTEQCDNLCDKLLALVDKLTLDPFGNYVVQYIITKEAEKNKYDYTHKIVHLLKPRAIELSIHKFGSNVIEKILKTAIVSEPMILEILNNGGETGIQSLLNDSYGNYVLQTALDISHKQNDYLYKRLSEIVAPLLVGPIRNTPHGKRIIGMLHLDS
# testDetails: Mg; RNA-MaP; 20 mM Na-HEPES pH 7.4, 30 mM KOAc, 0.75 mM MgCl2, 0.1% Tween-20, 5% glycerol, 0.1 mg/mL BSA, 2 mM DTT; 25 C; 0.0125-409.6 nM protein
# conditionInfo: tags: N-His6-TEV cleaved; C-SNAP kept, Cy3B-labelled; label: tethered on chip by stalled RNA polymerase
quantityName: pKd
Note: pKd values are expressed as the negative base-10 logarithm of concentration in M.

binder	pKd
UCUCUUUGUAUUUUAUCUCUU (ssRNA) [Ic_S1_P4E.1_K4.1_C4.1_H4.1_A4.1_[A6T]_F4.1_T4.1]	8.61

// field: pKd; key: UCUCUUUGUACAAUUAUCUCUU (ssRNA) [Ic_S1_P5E.1_K5.1_C5.1_H5.1_A5.1_[T5C]_[T6A]_F5.1_T5.1] ; value = 8.30

pKd for UCUCUUUGUACCAACCUCUCUU (ssRNA) [Ic_S1_P5E.1_K5.1_C5.1_H5.1_A5.1_[T5C]_[T6C]_F5.1_[T8A]_[T9C]_[A10C]_T5.1] is 6.26

Lookup result for Id_i_S2_P3E.6_K3.2_C3.3_[T-3C]_[C-2T]_[T-1C]_H3.2_A3.1_F3.1_T3.2 (ssRNA) RNA: UUUGAUUAAUAUGAUAUCGUUCUUUCUCUCUAUAUAUAUAUUCUUUCUCGAUAUCAUAUUAAUCUUU ; measured pKd: 7.46

binder UCUCUUUGUAGUUCUUCUCUU (ssRNA) [Ic_S1_P4E.1_K4.1_C4.1_H4.1_A4.1_[T5G]_[A6T]_F4.1_[T8C]_[A9T]_T4.1] , pKd observed: 6.10

Just so you know, measured pKd for Ic_S2_P5E.1_K5.1_C5.1_H5.1_A5.1_[T5C]_[T6A]_[A7G]_F5.1_[T8C]_[T9C]_T5.1 (ssRNA) RNA: UUUGAUUAAUAUGAUAUCGUUCUUUCUUGUACAGCCAUUCUUUCUCGAUAUCAUAUUAAUCUUU came out at 6.92

So, UCUCUUUGUAAUAUCAUCUCUU (ssRNA) [Ic_S1_P5E.1_K5.1_C5.1_H5.1_A5.1_[T5A]_F5.1_[T9C]_T5.1] ? Its pKd was 7.58

response.value for UCUCUUCUUGCUCUUAUAUAUAUCUCUU (ssRNA) [Ie_S1_P3E.2_K3.1_C3.2_H3.1_[+2CTCT]_A3.1_F3.1_T3.2] (field: pKd) = 6.08

Entry under test: Ie_S4_P4E.1_K4.1_C4.1_H4.1_A4.1_[+5TTT]_F4.1_T4.1 (ssRNA) RNA: UUUGACAACUGAUCGUUCUUUCUUGUAUUUUAUUAUUCUUUCUCGAUCAGUUGUCUUU . Its pKd was 8.76

The binder listed as UCUCUUGCACACUAUUAGUUCUCUU (ssRNA) [Id_ii_S1_P4E.4_K4.3_C4.2_[C-2G]_[T-1C]_H4.3_A4.1_F4.1_T4.2] shows pKd equal to 6.46

So for Ib_S2_P5E.1_K5.1_C5.1_H5.1_[T1C]_[A4T]_A5.1_F5.1_T5.1 (ssRNA) RNA: UUUGAUUAAUAUGAUAUCGUUCUUUCUCGUUUUAUUAUUCUUUCUCGAUAUCAUAUUAAUCUUU , the logged pKd turned out to be 6.08

Measured pKd of Id_iii_S4_P4E.8_K4.4_C4.3_[T-1G]_H4.1_A4.2_F4.1_T4.2 (ssRNA) RNA: UUUGACAACUGAUCGUUCUUUCUUCGUGUAUUUUAGUUUCUUUCUCGAUCAGUUGUCUUU : 8.94

All values here come from paper PMC9352680.
